- Experimental Target: human liver cathepsin B (Homo sapiens)
Structures can show the parent of a compound that is named as a salt.
Experimental Readout: IC50

IN: Can you look up IC50 on human liver cathepsin B (Homo sapiens) for COc1ccc2c(O[C@@H]3C[C@H]4C(=O)N[C@]5(C(=O)NS(=O)(=O)C6CC6)CC5/C=C/CCCC[C@H](N)C(=O)N4C3)cc(-c3ccccc3)nc2c1 (stereo partly shown) [Compound 6, dihydrochloride] ?
OUT: > 100 µM

---

- Experimental Target: HCV NS3/4A protease complex, BMS strain (genotype 1a) (Hepatitis C virus genotype 1a, UniProt P27958, C1454S/C1711G)
- Construct: recombinant HCV NS3/4A protease complex (amino'acids 1027 to 1711); inferred from the pET21b vector and Ni-NTA purification; made in house; host or cells: Escherichia coli BL21 (DE3), pET21b
- Sequence (P27958 1027-1711 C1454S/C1711G, one chain of several): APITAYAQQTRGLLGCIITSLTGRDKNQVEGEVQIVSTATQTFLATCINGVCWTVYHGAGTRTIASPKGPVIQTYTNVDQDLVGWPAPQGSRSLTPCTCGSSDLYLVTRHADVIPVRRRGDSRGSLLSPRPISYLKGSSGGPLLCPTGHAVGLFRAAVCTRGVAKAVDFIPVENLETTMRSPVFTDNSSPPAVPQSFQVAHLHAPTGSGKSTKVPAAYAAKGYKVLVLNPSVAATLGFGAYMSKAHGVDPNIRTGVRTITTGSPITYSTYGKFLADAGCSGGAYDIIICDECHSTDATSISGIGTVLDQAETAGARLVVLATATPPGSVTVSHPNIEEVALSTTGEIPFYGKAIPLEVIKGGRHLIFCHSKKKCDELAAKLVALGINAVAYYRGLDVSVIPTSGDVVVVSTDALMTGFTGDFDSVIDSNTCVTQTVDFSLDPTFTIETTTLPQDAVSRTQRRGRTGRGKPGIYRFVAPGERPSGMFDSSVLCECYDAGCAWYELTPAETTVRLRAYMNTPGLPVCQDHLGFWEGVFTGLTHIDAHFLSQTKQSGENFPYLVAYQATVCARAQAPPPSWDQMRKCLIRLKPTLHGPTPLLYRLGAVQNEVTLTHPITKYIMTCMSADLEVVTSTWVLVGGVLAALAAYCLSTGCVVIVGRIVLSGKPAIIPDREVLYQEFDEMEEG
- Experiment Summary: Recombinant HCV NS3/4A protease complex FRET peptide assay (BMS strain)
- Format: biochemical
- Condition Description: IC50, HCV NS3/4A protease FRET assay in vitro; IC50 ranges
pIC50: −log10 of the molar value.
Measured pIC50 of individual entries

COc1ccc2c(O[C@@H]3C[C@H]4C(=O)N[C@]5(C(=O)NS(=O)(=O)C6CCC6)CC5CCCCCCC[C@H](NC(=O)OC(C)(C)C)C(=O)N4C3)cc(-c3ccccc3)nc2c1 (stereo partly drawn) [Compound 19]
> 7.30

IN: Fill in: pIC50 of COc1ccc2c(O[C@@H]3C[C@H]4C(=O)N[C@]5(C(=O)NS(=O)(=O)C6CC6)CC5/C=C/CCC[C@H](NC(=O)OC(C)(C)C)C(=O)N4C3)cc(-c3ccccc3)nc2c1 (stereo partly drawn) [Compound 3] is ___
OUT: > 5.30

IN: Fill in: pIC50 of COc1ccc2c(O[C@@H]3C[C@H]4C(=O)N[C@]5(C(=O)NS(=O)(=O)C6CC6)C[C@H]5CCCCCC[C@H](NC(=O)OC(C)(C)C)C(=O)N4C3)cc(-c3ccccc3)nc2c1 [Compound 13] is ___
OUT: > 7.30

---

- Experimental Target: HCV NS3/4A protease complex, BMS strain (genotype 1a) (Hepatitis C virus genotype 1a, UniProt P27958, C1454S/C1711G)
- Construct: recombinant HCV NS3/4A protease complex (amino'acids 1027 to 1711); inferred from the pET21b vector and Ni-NTA purification; made in house; host or cells: Escherichia coli BL21 (DE3), pET21b
- Experiment Summary: Recombinant HCV NS3/4A protease complex FRET peptide assay (BMS strain)
- Format: biochemical
- Condition Description: IC50, HCV NS3/4A protease FRET assay in vitro; IC50 ranges
pIC50: −log10 of the molar value. Counter-ions that a name gives are not always drawn.
Measured pIC50 of individual entries

COc1ccc2c(O[C@@H]3C[C@H]4C(=O)N[C@]5(C(=O)NS(=O)(=O)C6CC6)CC5/C=C\CCCCC[C@H](NC(=O)NC(C)(C)C)C(=O)N4C3)cc(-c3ccccc3)nc2c1 (stereo partly shown)
> 7.30
COc1ccc2c(O[C@@H]3C[C@H]4C(=O)N[C@]5(C(=O)NS(=O)(=O)C6CC6)C[C@H]5/C=C\CCCCC[C@@H](NC(=O)OC(C)(C)C)C(=O)N4C3)ccnc2c1
> 6.30
CC(C)(C)OC(=O)N[C@H]1CCCCC/C=C\[C@@H]2C[C@@]2(C(=O)NS(C)(=O)=O)NC(=O)[C@@H]2C[C@@H](Oc3ccnc4ccccc34)CN2C1=O
> 7.30
COc1ccc2c(O[C@@H]3C[C@H]4C(=O)N[C@]5(C(=O)NS(=O)(=O)C6CC6)CC5/C=C/CCCC[C@H](NC(=O)OC(C)(C)C)C(=O)N4C3)cc(-c3ccccc3)nc2c1 (stereo partly shown)
> 7.30
COc1ccc2c(O[C@@H]3C[C@H]4C(=O)N[C@]5(C(=O)NS(=O)(=O)C6CC6)C[C@H]5CCCCCCC[C@H](NC(=O)OC(C)(C)C)C(=O)N4C3)cc(-c3ccccc3)nc2c1
> 7.30
CC(C)(C)OC(=O)N[C@H]1CCCCC/C=C\[C@@H]2C[C@@]2(C(=O)NS(=O)(=O)C2CC2)NC(=O)[C@@H]2C[C@@H](Oc3ccnc4ccccc34)CN2C1=O
> 7.30
COc1ccc2c(O[C@@H]3C[C@H]4C(=O)N[C@]5(C(=O)NS(=O)(=O)C6CC6)CC5/C=C/CC[C@H](N)C(=O)N4C3)cc(-c3ccccc3)nc2c1 (stereo partly shown) [Compound 2, dihydrochloride]
> 5.30
COc1ccc2c(O[C@@H]3C[C@H]4C(=O)N[C@]5(C(=O)NS(=O)(=O)C6CCC6)CC5CCCCCC[C@H](NC(=O)OC(C)(C)C)C(=O)N4C3)cc(-c3ccccc3)nc2c1 (stereo partly shown)
> 7.30

IN: Fill in: pIC50 of `COc1ccc2c(O[C@@H]3C[C@H]4C(=O)N[C@]5(C(=O)NS(=O)(=O)C6CC6)C[C@H]5CCCCCCC[C@H](NC(=O)OCC(C)(C)C)C(=O)N4C3)cc(-c3ccccc3)nc2c1` is ___
OUT: > 7.30

IN: Fill in: pIC50 of COc1ccc2c(O[C@@H]3C[C@H]4C(=O)N[C@]5(C(=O)NS(=O)(=O)C6CC6)CC5/C=C\CCCSC[C@H](NC(=O)OC(C)(C)C)C(=O)N4C3)cc(-c3ccccc3)nc2c1 (stereo partly shown) is ___
OUT: > 7.30

---

- Experimental Target: HCV NS3/4A protease complex, BMS strain (genotype 1a) (Hepatitis C virus genotype 1a, UniProt P27958, C1454S/C1711G)
- Construct: recombinant HCV NS3/4A protease complex (amino'acids 1027 to 1711); inferred from the pET21b vector and Ni-NTA purification; made in house; host or cells: Escherichia coli BL21 (DE3), pET21b
- Experiment Summary: Recombinant HCV NS3/4A protease complex FRET peptide assay (BMS strain)
- Assay type: biochemical
- Condition Description: IC50, against the BMS HCV NS3/4A complex
Structures can show the parent of a compound that is named as a salt.
Experimental Readout: IC50 (µM)
Just the number please, in µM, no unit attached.

IN: Fill in: IC50 of COc1ccc2c(O[C@@H]3C[C@H]4C(=O)N[C@]5(C(=O)NS(=O)(=O)C6CC6)CC5/C=C/CCCC[C@H](N)C(=O)N4C3)cc(-c3ccccc3)nc2c1 (stereo partly shown) [Compound 6, dihydrochloride] is ___
OUT: 0.021
